Experiment: Solubility in various solvents at 37° C.
Assay type: physicochemical
Conditions: aqueous buffer; pH 3 buffer, ionic strength 0.2, 37° C., based on the weight of amlodipine
MEASURE_NAME: solubility (mg/mL)
The figure you give is taken to be in mg/mL; do not add the unit.

Reported solubility, compound CCOC(=O)C1=C(COCCN)NC(C)=C(C(=O)OC)C1c1ccccc1Cl (stereo not shown) [Besylate, Amlodipine Besylate] : ____
3.25
